# STUDY SYSTEM: human TAS2R4 (Homo sapiens, UniProt Q9NYW5)
# Construct: expressed in transfected cells; host or cells: HEK293T-Gα16gust44
# Sequence (Q9NYW5 whole entry): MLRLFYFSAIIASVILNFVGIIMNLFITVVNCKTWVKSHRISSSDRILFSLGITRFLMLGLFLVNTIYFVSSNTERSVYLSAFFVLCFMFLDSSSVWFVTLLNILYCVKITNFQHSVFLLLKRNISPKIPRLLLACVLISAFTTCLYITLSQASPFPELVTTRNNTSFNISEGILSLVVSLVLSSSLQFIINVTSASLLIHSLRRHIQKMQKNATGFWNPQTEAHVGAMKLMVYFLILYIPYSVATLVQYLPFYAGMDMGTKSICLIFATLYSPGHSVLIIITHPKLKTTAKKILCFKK
# ASSAY COMMENT: Calcium imaging assay (FLIPR), HEK293T-Gα16gust44 cells transfected with human TAS2R4; further: test concentration or dose not given here
# Format: cell-based
# MEASUREMENT PARAMETERS: Time (s) 102.781 (TCA, TLCA: 102.782)
RECORDED ENDPOINT: RLU, fluorescence trace (RLU)
Your answer is read as RLU, so omit the unit and give the number.

Enquiry: Entry under review: C[C@H](CCC(=O)O)[C@H]1CC[C@H]2[C@@H]3[C@H](O)C[C@@H]4C[C@H](O)CC[C@]4(C)[C@H]3C[C@H](O)[C@]12C [Cholic Acid, cholic acid] . Reported RLU, fluorescence trace?
Return: 570.853

Enquiry: Entry under review: C[C@H](CCC(=O)O)[C@H]1CC[C@H]2[C@@H]3[C@@H](O)C[C@@H]4C[C@H](O)CC[C@]4(C)[C@H]3CC[C@]12C [Ursodeoxycholic Acid, ursodeoxycholic acid] . Reported RLU, fluorescence trace?
Return: 282.259

Enquiry: Entry under review: C[C@H](CCC(=O)NCCS(=O)(=O)O)[C@H]1CC[C@H]2[C@@H]3CC[C@@H]4C[C@H](O)CC[C@]4(C)[C@H]3CC[C@]12C [Taurolithocholic Acid, taurolithocholic acid] . Reported RLU, fluorescence trace?
Return: 280.287

Enquiry: Entry under review: C[C@H](CCC(=O)NCCS(=O)(=O)O)[C@H]1CC[C@H]2[C@@H]3[C@H](O)C[C@@H]4C[C@H](O)CC[C@]4(C)[C@H]3C[C@H](O)[C@]12C [Taurocholic Acid, taurocholic acid] . Reported RLU, fluorescence trace?
Return: 636.296

Enquiry: Entry under review: C[C@H](CCC(=O)NCC(=O)O)[C@H]1CC[C@H]2[C@@H]3[C@H](O)C[C@@H]4C[C@H](O)CC[C@]4(C)[C@H]3C[C@H](O)[C@]12C [Glycocholic Acid, glycocholic acid] . Reported RLU, fluorescence trace?
Return: 623.965

Enquiry: Entry under review: C[C@H](CCC(=O)O)[C@H]1CC[C@H]2[C@@H]3CC[C@@H]4C[C@H](O)CC[C@]4(C)[C@H]3C[C@H](O)[C@]12C [Deoxycholic Acid, deoxycholic acid] . Reported RLU, fluorescence trace?
Return: 349.375

###

# STUDY SYSTEM: human TAS2R4 (Homo sapiens, UniProt Q9NYW5)
# Construct: expressed in transfected cells; host or cells: HEK293T-Gα16gust44
# ASSAY COMMENT: Calcium imaging assay (FLIPR), HEK293T-Gα16gust44 cells transfected with human TAS2R4; further: test concentration or dose not given here
# Assay type: cell-based
# MEASUREMENT PARAMETERS: Time (s) 347.547
RECORDED ENDPOINT: RLU, fluorescence trace

Worked set:
C[C@H](CCC(=O)O)[C@H]1CC[C@H]2[C@@H]3[C@H](O)C[C@@H]4C[C@H](O)CC[C@]4(C)[C@H]3C[C@H](O)[C@]12C
275.523 RLU
C[C@H](CCC(=O)NCCS(=O)(=O)O)[C@H]1CC[C@H]2[C@@H]3CC[C@@H]4C[C@H](O)CC[C@]4(C)[C@H]3CC[C@]12C
92.346 RLU
C[C@H](CCC(=O)NCCS(=O)(=O)O)[C@H]1CC[C@H]2[C@@H]3[C@H](O)C[C@@H]4C[C@H](O)CC[C@]4(C)[C@H]3C[C@H](O)[C@]12C
156.987 RLU
C[C@H](CCC(=O)O)[C@H]1CC[C@H]2[C@@H]3CC[C@@H]4C[C@H](O)CC[C@]4(C)[C@H]3C[C@H](O)[C@]12C
349.654 RLU
C[C@H](CCC(=O)O)[C@H]1CC[C@H]2[C@@H]3[C@@H](O)C[C@@H]4C[C@H](O)CC[C@]4(C)[C@H]3CC[C@]12C
117.981 RLU

API: the following record is the query input.
Enquiry: Entry under review: C[C@H](CCC(=O)NCC(=O)O)[C@H]1CC[C@H]2[C@@H]3[C@H](O)C[C@@H]4C[C@H](O)CC[C@]4(C)[C@H]3C[C@H](O)[C@]12C . Reported RLU, fluorescence trace?
Return: 133.973 RLU
